# systemTested: T1, EF-Biotin (B. anthracis, UniProt P40136 34-800)
# T1 sequence: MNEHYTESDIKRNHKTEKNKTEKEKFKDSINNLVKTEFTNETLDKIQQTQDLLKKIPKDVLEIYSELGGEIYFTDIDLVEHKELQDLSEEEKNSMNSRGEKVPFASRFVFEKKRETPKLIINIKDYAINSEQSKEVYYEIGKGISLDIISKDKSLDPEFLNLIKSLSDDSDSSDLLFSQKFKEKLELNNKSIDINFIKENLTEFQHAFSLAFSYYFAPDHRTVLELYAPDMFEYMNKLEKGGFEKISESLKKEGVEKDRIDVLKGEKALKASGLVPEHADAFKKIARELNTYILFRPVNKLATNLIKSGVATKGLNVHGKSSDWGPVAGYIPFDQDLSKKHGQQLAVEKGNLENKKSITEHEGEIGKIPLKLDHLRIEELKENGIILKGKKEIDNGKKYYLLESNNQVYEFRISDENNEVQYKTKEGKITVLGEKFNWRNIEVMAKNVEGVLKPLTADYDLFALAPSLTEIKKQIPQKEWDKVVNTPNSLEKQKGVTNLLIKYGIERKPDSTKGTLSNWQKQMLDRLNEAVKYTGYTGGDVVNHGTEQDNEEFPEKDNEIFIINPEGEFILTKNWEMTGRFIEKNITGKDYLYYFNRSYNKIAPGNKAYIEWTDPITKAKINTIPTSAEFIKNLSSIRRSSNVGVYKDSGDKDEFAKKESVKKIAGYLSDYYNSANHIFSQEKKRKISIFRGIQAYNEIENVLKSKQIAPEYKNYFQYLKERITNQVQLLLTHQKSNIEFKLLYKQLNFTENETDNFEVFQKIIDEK
Phage ELISA Ag+/Ag- for assorted binders
Write the value in ratio as a bare number.

binder	Phage ELISA Ag+/Ag- (ratio)
clone 28 (VHH) VHH: EVQLQASGGGFVQPGGSLRLSCAASGASYRGTSMGWFRQAPGKEREFVSAISFRPDQQPYYADSVKGRFTISRDNSKNTVYLQMNSLRAEDTATYYCAERRQHSRGLYWGQGTQVTVSS	44.5
clone 42 (VHH) VHH: EVQLQASGGGFVQPGGSLRLSCAASGDGSFASAMGWFRQAPGKEREFVSAISAHAGGSPYYADSVKGRFTISRDNSKNTVYLQMNSLRAEDTATYYCAQRIGATRAMYWGQGTQVTVSS	36.2
clone 44 (VHH) VHH: EVQLQASGGGFVQPGGSLRLSCAASGFTSGSTAMGWFRQAPGKEREFVSAISRFENQGNYYADSVKGRFTISRDNSKNTVYLQMNSLRAEDTATYYCATRAVASSTMYWGQGTQVTVSS	52.7

// moving on: another record for Phage ELISA Ag+/Ag-
Qu. // returns reported Phage ELISA Ag+/Ag- for input clone 60 (VHH) VHH: EVQLQASGGGFVQPGGSLRLSCAASGSTFKHSAMGWFRQAPGKEREFVSAISSGPGMESYYADSVKGRFTISRDNSKNTVYLQMNSLRAEDTATYYCAGRAFPGQKMYWGQGTQVTVSS
Ans. 43.6
